Target: Alkaline phosphatase, tissue-nonspecific isozyme (Homo sapiens, UniProt P05186)
Sequence (P05186 whole entry): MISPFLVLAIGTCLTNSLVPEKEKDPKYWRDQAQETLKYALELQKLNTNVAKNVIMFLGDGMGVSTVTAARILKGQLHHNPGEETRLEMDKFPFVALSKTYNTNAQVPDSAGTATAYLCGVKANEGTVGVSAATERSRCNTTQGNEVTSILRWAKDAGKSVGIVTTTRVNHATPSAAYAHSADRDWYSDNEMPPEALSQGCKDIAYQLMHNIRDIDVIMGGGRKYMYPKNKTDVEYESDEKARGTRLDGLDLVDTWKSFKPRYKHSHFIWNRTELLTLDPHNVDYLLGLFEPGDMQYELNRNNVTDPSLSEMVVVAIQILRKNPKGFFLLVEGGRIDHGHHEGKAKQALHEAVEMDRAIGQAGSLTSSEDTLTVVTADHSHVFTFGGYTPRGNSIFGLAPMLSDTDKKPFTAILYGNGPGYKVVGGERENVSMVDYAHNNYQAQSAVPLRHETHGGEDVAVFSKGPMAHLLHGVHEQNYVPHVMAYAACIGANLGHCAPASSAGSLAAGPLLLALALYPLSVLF
Assay: activation of tissue-nonspecific alkaline phosphatase – biochemical, TNAP isozyme, mouse IAP uHTS hits, selectivity assay for mouse IAP activator project, dose response (AID 488880)
# EC50 listing for each entry below
Recorded Endpoint: EC50 (µM)

O=C(NN=CC1=CC(=O)C(=O)CC1)NN=CC1=CC(=O)C(=O)CC1 | 79.4
CN(CCO)c1ccc(CN=Nc2ccc([N+](=O)[O-])cc2S(=O)(=O)Nc2ccccc2C(=O)O)cc1 | 19.7
Cc1cc(=O)[nH]c(N=NCc2ccc(O)c(O)c2)n1 | 56.1

Data provenance: BindingDB's records for doi:10.7270/Q2J101NV
